Species: Rattus norvegicus
Experiment: Open TG-GATES - Regimen: Daily Repeat
Type: toxicity, organism-based, Sprague-Dawley
Set-up: regimen Daily Repeat, gender Male, age 6 weeks
Details: in vivo, po, 0 mg/kg, […], tissue Plasma, route gavage, dose level Control, time 7 day
measurement label: ALP (IU/L)

O=C1CN(/N=C/c2ccc(-c3ccc([N+](=O)[O-])cc3)o2)C(O)=N1 [DANTROLENE] : 931.4
CS(=O)(=O)Nc1ccc([N+](=O)[O-])cc1Oc1ccccc1 [NIMESULIDE] : 876.4
C=CCO [ALLYL ALCOHOL] : 889.2
Cc1cnc(NC(=O)C2=C(O)c3ccccc3S(=O)(=O)N2C)s1 [MELOXICAM] : 892.2
O=P1(N(CCCl)CCCl)NCCCO1 (stereo unspecified) [CYCLOPHOSPHAMIDE ANHYDROUS] : 1566.6
COc1ccc(O)c(C(C)(C)C)c1.COc1ccc(O)cc1C(C)(C)C [BUTYLATED HYDROXYANISOLE] : 1903.8
Cc1cccc(Nc2cc(Cl)nc(SCC(=O)O)n2)c1C [PIRINIXIC ACID] : 1820.8
Cn1c(=O)c2c(ncn2C)n(C)c1=O [CAFFEINE] : 1993.2
COc1ccc(Cl)cc1C(=O)NCCc1ccc(S(=O)(=O)NC(=O)NC2CCCCC2)cc1 [GLYBURIDE] : 926.8
O=C1NC(=O)C(c2ccccc2)(c2ccccc2)N1 [PHENYTOIN] : 1443
Cn1cnc([N+](=O)[O-])c1Sc1ncnc2nc[nH]c12 [AZATHIOPRINE] : 1579.8
